Every entry's value here was drawn from ChEMBL document CHEMBL1201862.

Tested on: SW-620
assay.explanation: NCI tumour cell line growth inhibition, 48 h
Active and inactive are the calls of the source. Rule as the data show it: active = GI50 up to about 1.1 µM and inactive = higher.
Please answer using one outcome listed in yes (1) = active, no (0) = inactive

// known answers, use as guide
compound	system	assigned.label
Oc1[nH]c(Nc2cccc(CC(F)(F)F)c2)nc2ncnc1-2	SW-620	no (0)
O=C(Nc1ccc2ncccc2c1)c1cc2c(cc1Cl)Sc1nccn1S2(=O)=O	SW-620	no (0)

Exercise: Could you check what this test reported for C/C(CC(O)(/C=N/O)c1ccccc1)=N/O (centres undefined) ?
Solution: no (0)

Exercise: Any idea what this test logged for CC1=CC(=O)CC(C)(C)C1/C=C/C(C)=C/C=C/C(C)=C/C=C/C=C(C)/C=C/C=C(C)/C=C/C1C(C)=CC(=O)CC1(C)C (centres undefined) ?
Solution: no (0)

Exercise: Status in this test for CC(C)C(Sc1nc(-c2ccccc2)c(-c2ccccc2)[nH]1)C(=O)N/N=C/c1ccc([N+](=O)[O-])cc1 (centres undefined) ?
Solution: no (0)

Exercise: Short answer needed: outcome of this test for "C1CSCC2(COC2)CSCCSCC2(COC2)CS1" ?
Solution: no (0)

Exercise: Test call, this compound: "CN(C)/C=N/S(=O)(=O)c1nn2c(C=O)c(-c3ccc(-c4ccc([N+](=O)[O-])cc4)o3)nc2s1"
Solution: yes (1)

Exercise: Identify the outcome logged in this assay for the compound shown: "CCc1cc(Cc2cc(CC)c(NC(=O)C(=O)Cc3ccccn3)c(CC)c2Cl)c(Cl)c(CC)c1NC(=O)C(=O)Cc1ccccn1"
Solution: no (0)

Exercise: I'd appreciate the recorded outcome for "O=C(c1ccccc1)N1C2CCC1C(C(F)(F)F)=C2C(F)(F)F" from this test.
Solution: no (0)

====

Test system: EKVX
assay.explanation: NCI tumour cell line growth inhibition, 48 h
The source made the active and inactive calls. Rule as the data show it: active = GI50 up to about 1.1 µM and inactive = higher.
observable: GI50

Example results:
compound	observable	readout.value
CCOC(=O)CC1(c2cccc3ccccc23)OC(=O)c2ccccc21 (centres undefined)	GI50	63.2 µM (inactive)
CCOC(=O)c1cc(C#N)[nH]c1-c1ccsc1	GI50	17.6 µM (inactive)
CON(C)c1nc(N)c(C#N)c(C#N)c1C#N	GI50	> 10 µM (inactive)

Exercise: Tell me the measured GI50 of "Cc1cnc2ccc(C)c([N+](=O)[O-])c2c1NCCCN(C)C" , please.
Solution: > 100 µM (inactive)

====

Tested on: U-251
assay.explanation: NCI tumour cell line growth inhibition, 48 h
The source made the active and inactive calls. Cut-off read from the data, not from the text of the source: active = GI50 up to about 1.1 µM and inactive = higher.
observable: GI50

Below, each entry is followed by its recorded GI50 result.
molecule	system	GI50
O=[N+]([O-])/C(C(Cl)=C(Cl)Cl)=C1\Nc2ccccc2O1	U-251	> 100 µM (inactive)
C/C(=C\c1ccccc1)n1c(=O)cc(C)n1C	U-251	> 100 µM (inactive)
COc1ccc(-c2cc(-c3ccc(Nc4ccnc5cc(C(F)(F)F)ccc45)cc3)[nH]c(=O)c2C#N)c2ccccc12	U-251	10.2 µM (inactive)
C=CCC1(O)c2cccc(O)c2C(=O)c2c(O)cccc21	U-251	23.6 µM (inactive)
CCOC(=O)C1C(=O)c2ccccc2CN1Cc1ccccc1 (centres undefined)	U-251	> 100 µM (inactive)
O=C(O)c1nc(-c2ccccn2)c(-c2ccccn2)nc1C(=O)O	U-251	1.77 µM (inactive)
COC(=O)C1=C(c2ccc3c(c2)OCO3)OC(c2ccc3c(c2)OCO3)C1 (centres undefined)	U-251	93.8 µM (inactive)
O=S(=O)(O)c1cc(/N=N/c2cc(S(=O)(=O)O)c3cccnc3c2O)ccc1/C=C/c1ccc(/N=N/c2cc(S(=O)(=O)O)c3cccnc3c2O)cc1S(=O)(=O)O	U-251	> 100 µM (inactive)

Exercise: If you can, please state the reported GI50 value of CC1(C)N=C2C(=O)c3c([nH]c4ccccc34)[C@]3(C)CCC1CC23 (some centres undefined) .
Solution: > 6.25 µM (inactive)

Exercise: Which GI50 value is on record for "O=c1[nH]nc(Cc2ccccc2)n1/N=C/c1c[nH]c2ccccc12" ?
Solution: 52.1 µM (inactive)

Exercise: Param item = Cc1ccc(S(=O)(=O)NC(=O)NC(CC(N)=O)C(=O)O)cc1 (centres undefined) ; retrieve measured GI50.
Solution: > 100 µM (inactive)

====

System: MDA-MB-435
assay.explanation: NCI tumour cell line growth inhibition, 48 h
Calls of active or inactive are those of the source. Rule as the data show it: active = GI50 up to about 1.1 µM and inactive = higher.
Listing of recorded GI50 by entry.

Take a look at these entries with their results.
molecule	GI50
CC1=CC(=O)CC(C)(C)C1/C=C/C(C)=C/C=C/C(C)=C/C=C/C=C(C)/C=C/C=C(C)/C=C/C1C(C)=CC(=O)CC1(C)C (centres undefined)	23.4 µM (inactive)
CN(C(=O)[C@H](NC(=O)OCc1ccccc1)c1ccccc1)C1CCCCC1N1CCCC1 (some centres undefined)	70.8 µM (inactive)
CC(=O)O[C@@]12[C@@H]3O[C@@]4(O)C[C@]5(C)[C@H]6C[C@@](C(C)C)(O[C@H]5c5ccoc5)O[C@H]1[C@]6(C4)O[C@]2(O)C(C)=CC3(C)C	> 100 µM (inactive)

Exercise: Entry "O=[N+]([O-])c1cc(-[n+]2cc([O-])on2)ccc1Cl" , system MDA-MB-435: what GI50 was measured?
Solution: 27.6 µM (inactive)

====

Property: GI50; scope: individual molecules
System: NCI-H23
assay.explanation: NCI tumour cell line growth inhibition, 48 h
The source made the active and inactive calls. Cut-off read from the data, not from the text of the source: active = GI50 up to about 1.1 µM and inactive = higher.

Illustrative cases are given below, each with its answer.
structure.smiles	GI50
COc1cccc(/N=C/c2cc(OC)c(OC)c(OC)c2)c1	> 100 µM (inactive)
Cc1c2cccc-2c(OCCOC(=O)n2ccnc2)cc2c1[nH]c1ccccc12	2.44 µM (inactive)
CC1=C(C(=O)Nc2ccc([N+](=O)[O-])cc2)C(c2ccccc2O)C(C(=O)Nc2ccc([N+](=O)[O-])cc2)=C(C)N1	18.6 µM (inactive)
CC(=O)O[C@H]1CC(C)(C)C(=C=C/C(C)=C/C=C/C=C/C=C(C)/C=C2C=C(/C=C/[C@@]34O[C@]3(C)C[C@@H](O)CC4(C)C)C(=O)O/2)[C@](C)(O)C1	5.14 µM (inactive)

Shifting focus to the molecule that follows.
Exercise: Which GI50 value is on record for "CSCCCNC(=O)c1csc(-c2csc(CCN)n2)n1" ?
Solution: > 100 µM (inactive)

====

System: OVCAR-3
assay.explanation: NCI tumour cell line growth inhibition, 48 h
Activity calls are given as the source filed them. Rule as the data show it: active = GI50 up to about 1.1 µM and inactive = higher.
Consider the following molecules and their measured GI50 readings.

Guide cases for GI50, answers given:
molecule	GI50
CC(=O)O[C@@]12[C@@H]3O[C@@]4(O)C[C@]5(C)[C@H]6C[C@@](C(C)C)(O[C@H]5c5ccoc5)O[C@H]1[C@]6(C4)O[C@]2(O)C(C)=CC3(C)C	> 100 µM (inactive)
O=[N+]([O-])c1cc(-[n+]2cc([O-])on2)ccc1Cl	37.3 µM (inactive)
COC(=O)c1cc(O)c(O)c(O)c1-c1c(O)c(O)c(O)c(SC[C@H](NC(=O)OCc2ccccc2)C(=O)OCc2ccccc2)c1C(=O)OC	34 µM (inactive)
N#CC12CCC(O)C(CC1)C2=O (stereo not drawn)	> 100 µM (inactive)

Exercise: Observed GI50 on OVCAR-3 for "CC(C)(C)c1cc(COc2c3sc(=S)sc3c(OCc3cc(C(C)(C)C)cc(C(C)(C)C)c3)c3sc(=S)sc23)cc(C(C)(C)C)c1" , please.
Solution: > 100 µM (inactive)

Exercise: Notebook entry, OVCAR-3 assay: GI50 of "CCOC(=O)c1sc2nc(SC)nc3c2c1N=CN3c1ccccc1Cl" = ?
Solution: 32.6 µM (inactive)

Exercise: Give OVCAR-3 GI50 for "CC1=C(C(=O)NNC(=O)c2ccccc2O)CC(C(=O)NNC(=O)c2ccccc2O)=C(C)N1"
Solution: 1.55 µM (inactive)

Exercise: Enter reported GI50 observed with OVCAR-3 for COc1cc([C@@H]2c3cc4c(cc3[C@@H](NCc3ccc(C#N)cc3)C3COC(=O)[C@@H]32)OCO4)cc(OC)c1O (stereo partly drawn)
Solution: 2.16 µM (inactive)

Exercise: Query the reported GI50 for OVCAR-3; item: "CC(C)c1cc(CN(C)C)c(O)c(C(C)(C)C)c1"
Solution: 17.4 µM (inactive)

Exercise: Find GI50 (OVCAR-3) for the entry "CC(C)Cn1cnc2c(SCc3ccccn3)nc(N)nc21"
Solution: > 100 µM (inactive)

Exercise: Field: GI50 (OVCAR-3). Entry: "Cc1cn(C(=O)NC23CC4CC(CC(C4)C2)C3)c(=O)[nH]c1=O"
Solution: 88.3 µM (inactive)

Exercise: Entry O=C1C(C(O)(C(F)(F)Cl)C(F)(F)Cl)CCC1C(O)(C(F)(F)Cl)C(F)(F)Cl (stereo not drawn) , system OVCAR-3: what GI50 was measured?
Solution: 7.28 µM (inactive)

Exercise: What value of GI50 on OVCAR-3 does CC(=O)OC1CCC2(C)C(CCC3C4CC=C(C5(C)OCCO5)C4(C)CCC32)C1 (stereo not drawn) have?
Solution: 19.7 µM (inactive)

Exercise: Item: CCOC(=O)/C=C1\Nc2ccccc2C12CCc1c([nH]c3ccccc13)C2C(=O)OCC (stereo not drawn) Test system: OVCAR-3 Read-out: GI50 Value: ?
Solution: 44.2 µM (inactive)

Exercise: Checklist item: GI50 tested on OVCAR-3, entry "O=C1/C(=C/c2cccc([N+](=O)[O-])c2)N=C(c2ccccc2)N1c1ccc2c(c1)Sc1cc(N3C(=O)/C(=C/c4cccc([N+](=O)[O-])c4)N=C3c3ccccc3)ccc1N2" , value?
Solution: 12.6 µM (inactive)

Exercise: GI50 of "CC(C)(C)c1nc2c(o1)/C(=N\c1ccccc1)c1ccccc1C2=O" on OVCAR-3?
Solution: 1.33 µM (inactive)

Exercise: Kindly state the measured GI50 obtained for "Cc1cc[n+]2c(c1)-c1cc(C)cc[n+]1CC2" with OVCAR-3.
Solution: 45.2 µM (inactive)

Exercise: Record lookup: for OVCAR-3, what GI50 belongs to "O=C1C(O)=C(CN(CCCl)CCCl)C(=O)c2ccccc21" ?
Solution: 45.1 µM (inactive)
